- System: P388 leukemia ip, CD2F1 mice, survival T/C
- experiment summary: NCI In Vivo Anticancer Drug Screen. Data for tumor model P388 Leukemia (intraperitoneal) in CD2F1 (CDF1) mice
- measurement setup: endpoint: median survival time; dose: 200.0 mg/kg/injection; schedule: Q01DX005 (ip); vehicle: distilled water + alcohol; higher = longer survival
Inconclusive results and toxic doses are left out.
endpoint label: T/C

• CN(C)CCCSc1n[nH]c(=O)[nH]c1=O = 92 % of control
• COc1ccc(C=C2C=C(C(C)(C)C)C(=O)C(C(C)(C)C)=C2)cc1 = 108 % of control
• COc1ccc(C(C)c2cc(C(C)(C)C)cc(C(C)(C)C)c2O)cc1 (stereo not given) = 94 % of control
• CN1C(=O)c2ccccc2N(C)C12CCN(Cc1ccccc1)CC2 = 97 % of control
• Nc1nc(F)nc2c1ncn2CC(O)CO (stereo not given) = 95 % of control

====

- Tested on: P388 leukemia ip, CD2F1 mice, survival T/C
- experiment summary: NCI In Vivo Anticancer Drug Screen. Data for tumor model P388 Leukemia (intraperitoneal) in CD2F1 (CDF1) mice
- measurement setup: endpoint: median survival time; dose: 400.0 mg/kg/injection; schedule: Q04DX002 (ip); vehicle: saline with Tween-80; higher = longer survival
Inconclusive results and toxic doses are left out.
Listing of entries alongside the reported T/C.
endpoint label: T/C

• COc1ccc(C=Nc2c(N)[nH]c(=S)[nH]c2=O)cc1 = 107 % of control
• CCn1cc(C(=O)NC(C)C(=O)NC(C)P(=O)(O)O)c(=O)c2ccc(C)nc21 (centres undefined) = 101 % of control
• NC(=O)N/N=C1\CCCCC12CCCC2 = 100 % of control
• COC(=O)C1CC(NO)CN1S(=O)(=O)c1ccc(C)cc1 (centres undefined) = 93 % of control
• CC(=O)OC1Cc2c(cc3c4c(cccc24)N(C(C)=O)C3)N(C)C1 (centres undefined) = 100 % of control
• Cc1nn(C(=S)S)c(C)c1N=Nc1ccccc1C(F)(F)F = 105 % of control
• Clc1c2ccccc2c(Cl)c2ccccc12 = 96 % of control
• O=Cc1c(-c2ccccc2)sc2ccccc2c1=O = 109 % of control
• c1ccc2c3c(ccc2c1)OCCOCCOc1ccc2ccccc2c1-c1c(ccc2ccccc12)OCCOCCOc1ccc2ccccc2c1-3 = 91 % of control

====

Attribute: T/C
- Test system: P388 leukemia ip, CD2F1 mice, survival T/C
- experiment summary: NCI In Vivo Anticancer Drug Screen. Data for tumor model P388 Leukemia (intraperitoneal) in CD2F1 (CDF1) mice
- measurement setup: endpoint: median survival time; dose: 100.0 mg/kg/injection; schedule: Q04DX003 (ip); vehicle: saline with Tween-80; higher = longer survival
Inconclusive results and toxic doses are left out.
endpoint label: T/C

* CN(C)c1nc(N(C)C)n2nc(-c3ccccc3[N+](=O)[O-])nc2n1 | 104 % of control
* CN(C)c1cccc2c(S(=O)(=O)Cl)cccc12 | 110 % of control
* CN(c1ccccc1)C1CS(=O)(=O)OC2=C1CN(Cc1ccccc1)CC2 (configuration not stated) | 99 % of control
* CC(=O)N1c2ccccc2Sc2cc(C(O)(C(F)(F)F)C(F)(F)F)ccc21 | 100 % of control
* C[C@@H]1C[C@H]2C(=CC1=O)CC[C@@H]1[C@@H]2CC[C@]2(C)[C@@H](O)CC[C@@H]12 | 100 % of control
* CCNc1nc(Cl)nc(NC(C)C)n1 | 87 % of control
* O=C(Cc1ccccc1)c1ccccc1 | 98 % of control

====

- Test system: P388 leukemia ip, CD2F1 mice, survival T/C
- experiment summary: NCI In Vivo Anticancer Drug Screen. Data for tumor model P388 Leukemia (intraperitoneal) in CD2F1 (CDF1) mice
- measurement setup: endpoint: median survival time; dose: 50.0 mg/kg/injection; schedule: Q01DX009 (ip); vehicle: saline with Tween-80; higher = longer survival
Toxic doses and inconclusive results are not listed.
Catalogue of T/C values
endpoint label: T/C

• [O-][n+]1c(CCl)nc2ccccc2c1-c1ccccc1F = 103 % of control
• CCCCCCCCOCC(=O)O = 107 % of control
• CCOC(=O)Sc1ncnc2nc[nH]c12 = 122 % of control
• COc1cc(C(O)C2C(=O)OCC2C2(c3ccc4c(c3)OCO4)SCCCS2)cc(OC)c1OC (stereo not given) = 107 % of control
• CN1CCC(=C2c3ccccc3Oc3ncccc32)CC1 = 102 % of control

====

- Test system: P388 leukemia ip, CD2F1 mice, survival T/C
- experiment summary: NCI In Vivo Anticancer Drug Screen. Data for tumor model P388 Leukemia (intraperitoneal) in CD2F1 (CDF1) mice
- measurement setup: endpoint: median survival time; dose: 100.0 mg/kg/injection; schedule: Q01DX009 (ip); vehicle: other; higher = longer survival
Toxic doses and inconclusive results are not listed. Peptide text beside a SMILES is read from it. * marks the point of attachment. Boc = CC(C)(C)OC(=O)*; NHNH2 = NN*
endpoint label: T/C

- COC(=O)C1=NNC(C(=O)OC)=NN1: 98 % of control
- CC(NC(=O)C(Cc1c[nH]c2ccccc12)NC(=O)OC(C)(C)C)C(=O)NN (stereo not drawn) (Boc-Trp-Ala-NHNH2; configuration not given here): 109 % of control
- COc1cc2c(=O)n(C)c3ccccc3c2cc1OC: 91 % of control
- O=NC=C1N(O)C=CN1O: 97 % of control
- COc1cc2c(cc1OC)C(=O)c1ncccc1C2=O: 90 % of control
- O=C(Oc1ccc(NC(=O)c2cc3c(cc2Br)OCO3)cc1)c1ccccc1: 89 % of control
- COc1ccc([N+](=O)[O-])c(O)c1OC: 94 % of control

====

- System: P388 leukemia ip, CD2F1 mice, survival T/C
- experiment summary: NCI In Vivo Anticancer Drug Screen. Data for tumor model P388 Leukemia (intraperitoneal) in CD2F1 (CDF1) mice
- measurement setup: endpoint: median survival time; dose: 50.0 mg/kg/injection; schedule: Q04DX002 (ip); vehicle: saline with Tween-80; higher = longer survival
Inconclusive results and toxic doses are left out.
endpoint label: T/C

* c1ccc2c(C3CCCN4CCCCC34)c[nH]c2c1 (stereo not given) | 100 % of control
* CC1CCCN2C(=O)CN(N3CCOCC3)CC(=O)N12 (stereo not given) | 94 % of control
* O=C(NC12CC3CC(CC(C3)C1)C2)OCCN1CCN(CCCN2c3ccccc3Sc3ccc(C(F)(F)F)cc32)CC1 | 101 % of control
* CN=C(N)N/N=C(\c1ccc(Cl)cc1)c1ccc([N+](=O)[O-])cc1Cl | 101 % of control
* CNCCC(Oc1ccc(C(F)(F)F)cc1)c1ccccc1 (stereo not given) | 106 % of control
* COC1=CC(C)(C)C(=O)S1 | 96 % of control
* O=C1CSC(c2ccc(O)c(O)c2)N1c1nncs1 (stereo not given) | 100 % of control
* NC(=S)c1ccc(C2Nc3ccc(Cl)cc3N2)cc1 (stereo not given) | 90 % of control
* Cc1c2ccncc2c(CNC(=O)C(N)Cc2c[nH]c3ccccc23)c2c3ccccc3n(C)c12 (stereo not given) | 117 % of control
* C[C@H]1CCC2=C(C1)NC(N)=NC2(C)C | 98 % of control

====

- System: P388 leukemia ip, CD2F1 mice, survival T/C
- experiment summary: NCI In Vivo Anticancer Drug Screen. Data for tumor model P388 Leukemia (intraperitoneal) in CD2F1 (CDF1) mice
- measurement setup: endpoint: median survival time; dose: 12.5 mg/kg/injection; schedule: Q01DX009 (ip); vehicle: water; higher = longer survival
Inconclusive results and toxic doses are left out.
Catalogue of T/C values
endpoint label: T/C

* O=NNc1nccs1 | 97 % of control
* CN(C)CCOc1cccc2c1C(=O)c1ccccc1C2=O | 113 % of control
* COCC[P+](c1ccccc1)(c1ccccc1)c1ccccc1 | 123 % of control
* COC(C)(C)O/N=C(\C[n+]1ccccc1)c1ccccc1 | 114 % of control

====

Overview of recorded T/C for various compounds
- System: P388 leukemia ip, CD2F1 mice, survival T/C
- experiment summary: NCI In Vivo Anticancer Drug Screen. Data for tumor model P388 Leukemia (intraperitoneal) in CD2F1 (CDF1) mice
- measurement setup: endpoint: median survival time; dose: 100.0 mg/kg/injection; schedule: Q04DX002 (ip); vehicle: saline with Tween-80; higher = longer survival
Inconclusive results and toxic doses are left out.
endpoint label: T/C

- CCOC(=O)c1cccc([N+](=O)[O-])c1C(=O)OCCN(CC)CC: 100 % of control
- COn1nnc2cc(Cl)ccc21: 107 % of control
- N#Cc1ccc2c(ccc3ncccc32)n1: 101 % of control
- NC(C[O-])C(=O)[O-].NCC(=O)[O-].[Mn+3] (configuration not stated): 114 % of control
- COC1=CC(C)(C)C(=O)S1: 100 % of control
- O=C1NN2CCCN=C2c2cccnc21: 101 % of control
- C=C1C(=O)O[C@@H]2/C=C(/C)[C@@H](OC(C)=O)C/C=C(\C)C(O)[C@@H](OC(=O)/C(C)=C\C)C12 (some centres not stated): 104 % of control
- C=Cc1ccccc1N/N=C(\Cl)C(=O)OCC: 108 % of control
- Cc1ccc(C(=O)NCCN2CCN3Cc4[nH]c5ccccc5c4CC3C2)cc1 (configuration not stated): 92 % of control
- Clc1c2ccccc2c(Cl)c2ccccc12: 97 % of control
- COc1ccccc1C1OC(c2ccccc2OC)C2CCN(C)C2(C)O1 (configuration not stated): 92 % of control
- CC(=O)c1c(OCC(O)CN2CCCCC2)ccc2c(C)cc(=O)oc12 (configuration not stated): 100 % of control

These entries and their values trace back to PubChem BioAssay AID330.
